assay summary: AUC (0 to 6 hrs) in human at 175 mg, po QID administered on day 1 followed by 2-days wash out period after which dosing continued up to day 11 measured on day 11
Format: ADME, organism-based
Parameters: time < 6 hr, dose 175 mg, route oral
condition parameters: plasma
reported metric: AUC at 6 h (µM·h)
Provide only the numeric value, understood in µM·h.

Notebook: O=C(O)c1n[nH]c2c1C[C@H]1C[C@@H]21 , AUC at 6 h read as 0.123

----------
assay summary: Cmax in human at 175 mg, po QID administered on day 1 followed by 2-days wash out period after which dosing continued up to day 11 measured on day 1
Type: ADME, organism-based
Set-up: dose 175 mg, route oral
condition parameters: in vivo
reported metric: Cmax (nM)
Provide only the numeric value, understood in nM.

Notebook: O=C(O)c1n[nH]c2c1C[C@H]1C[C@@H]21 , Cmax read as 52.6

----------
assay summary: Tmax in human at 150 mg, po BID administered on day 1 followed by 2-day wash out period after which dosing continued up to day 11 measured on day 11
Format: ADME, organism-based
condition parameters: in vivo
reported metric: Tmax
Answer shape: numeric part, then the unit.

Notebook: O=C(O)c1n[nH]c2c1C[C@H]1C[C@@H]21 , Tmax read as 1 h
